test_details: soluble fraction after stress (log2 fold change); higher = more stays soluble; pooled small domains, quantitative proteomics
applied_conditions: stress: 50 degC
Each entry gets n if its soluble fraction (log2) stays under -0.2, and y if its soluble fraction (log2) is -0.2 or above.

INSERT INTO measurements (sequence_content, assigned_category) VALUES
  ('HMTPGPFLVYITGAVERPNVLVTLDYGSRVIDALNAAGGSRIDANLDLVNLAQRLVDGDQIHVPTLR', 'n'),
  ('HMTKVMVPNVVGMSRGEAEEALRGVKLQVDLKREVSDDPEVKPEEVLRQTPDAQTSVPQGSVVTLYVADKP', 'y'),
  ('HMKLASIGDNIHTLRKNKGLTQSQLAGKLGVNVDTISNYEKGVSTPDFDIVEKLVNIFNVDAHSLLFK', 'y'),
  ('HMLGKEVVRAYNISYAIDDKGSLQGDLTAALTGLIPLSKPPVLDQRNRSLYVTATPEQHKDVAALLAKL', 'y'),
  ('HMLLFSVADIVKRSKRILSFKTDAELAAYFGVSRSTLSNWIARNSIDFPLLLSKMKDVDYTWLILGKGTPG', 'n'),
  ('HMGYTTSFVVQLKNAVSISFDEIDQNLRKLPGVEDVVIVEEAAMAYLKVDRQHFREEQLAHFEFVRQ', 'n'),
  ('HMGTVSSGSSSTDTPFSLGEIVRHKVFGEGVVLSIEGQGDASRIQINFNTAGTKWLVTAYADLEK', 'n');

---

test_details: soluble fraction after stress (log2 fold change); higher = more stays soluble; pooled small domains, quantitative proteomics
applied_conditions: stress: 50 degC
Quick reference: soluble fraction (log2) of the listed items.
experimental_readout: soluble fraction (log2)

INSERT INTO assay_data (sequence_content, numeric_readout) VALUES
  ('HMIDHLPPQRAAVLAFLQRELVAGRSPSLAEIALAFGFASRNAAQKHVQALVADGLLEQATGRSRGLRLPG', -1.67),
  ('HMKGKIYFFEEGVDRVGGVERVISTLANEFSKKYKVNVISFYKTRKETFFKYNSDIDITYLSK', 0.14),
  ('HMKTGNIVMVNLGWKGKYYSIKMFFPQVSKPSRKDVQDQIEKIYPGGKLYTFVVSNYEPGEPMLHA', -1.06),
  ('HMDIEITIPPEAKELDVSKILISGNIITDEQEFLDYLKQNNVAAFKDGNYKLNKNMTTEEIVNQIK', 0.498),
  ('HMASMNPVWLEFPNIPWGSAGWRMGWGEDYMRRWAKWYISLAEVERQSYKSDWPEPQEWEGFYAFMEHGT', -1.63),
  ('HMNSSLFLARQVHALRKKAGLTLQQLSRKSDVSVSTLSKIEKGQLSPTYEKIVSLARGLDVPIAALFHE', -0.976),
  ('HMPTNVYSIIGKEGIVLESIDNLNSTGKVKVNGELWSAISDSNIEKGETIKVLSVNGVKLKVEKVN', 0.0885),
  ('HMDYEVPEELQQKFEEFPRLKEAFYQLTPGRQHQYLYYFSQAKRSQTRYNRIDKYMNAILQGKGMK', -0.991);

---

test_details: soluble fraction after stress (log2 fold change); higher = more stays soluble; pooled small domains, quantitative proteomics
applied_conditions: stress: 50 degC
experimental_readout: soluble fraction (log2)

INSERT INTO measurements (sequence_content, numeric_readout) VALUES
  ('HMESILDDFPGLGAVRRAALLEHFGDIDRLRAASAVEITEVDGFGDVLARELHDFLHRPKPDA', -0.455),
  ('HMEKLNYSISNEEQGQRIDKYLSLMIEGKSRSFIQGLIDDKKVMANGKVIKSNYKLKNNDEITVEMPDPI', -0.155),
  ('HMTFSDKIRELRKQKGVSQAVVAEYLGITKQAYSLYETGKREPDFDSLLKLAEYFGTDTDSLLY', -0.309),
  ('HMRENAARNRNVNLDIGETLRVDAWSPERRARVQYRGAAWDVELAPNAPATVGEFRIVEVRGNVLVVTP', 0.0231),
  ('HMTSVQDLLRNGDRVGYQNGSTVKYWLEEMGFHKKDLLGYVTVEEYAEALQRGSGNGGVSAIVD', -0.961),
  ('HMPIEQVEVPNLTNMTREEAESTLTSLNLKAQVHEEANEADEGKVFKQGTNTGEMVDEGSTIEIWVS', -0.478),
  ('HMLIGLNETESLVLDALIANPMRIDQVSAMLKKDVATTLKFLGGLSVRGLVETLFGGRFAPTKIALHARS', -0.276),
  ('HMTLGSVRTVRQVLDDGRLLVADSGGNVTLVRRAGTLAKENVNTGDRVSVDSSVRFALTLIPV', -0.0338),
  ('HMSEPHPPFQVVAQFPYKSEYEDDLNFEKDQIITVTSIEDDEWYYGDFKNKGGELVEGIFPKSFVTVK', -0.403),
  ('HMRWGDPLTVKVPSFIGQTKDDIAKQHYPFRIEWHGEGAKIGSQLPEVDSVIKQDGTIHLYLV', -0.104),
  ('HMLSGGEVKRIEIATILARKSGLMIFDEPEAGIDLWSFARLVETFEDIRSNTSGSLVIISHQ', 0.00488),
  ('HMGGQYQVRPGETLNQIAARVRPSNMSLSETQKAIIQANPDIFKNGNPNLIFAGDILRIPTGNQI', 0.211),
  ('HMSPPVIQQGQDVRLIYKGTGFAVSNEGKALNTAADGQVARARTGGGQTVSGIARPGGIIEIT', 0.308),
  ('HMDPYLSGLLQKLAETDKKISFTRLRSEDLDGESREAIYEFIEKYSGRFGVRWLLNEFGLSPSVYYNYLHS', -0.741),
  ('HMSDLLYAHPTEKGFQLVNVTQKVVMVILKTAAPNVYTVKGKNAIVFKEGNSWFYSENHNKKLLNIK', -1.13),
  ('HMTKYEKKIFEIVNASRDHLTAEQVLAALREEYPAVSQATVYNNLKKLTSDGLLRKLTLADSPDRYD', -0.208),
  ('HMHKAVVGPPNARKLAVTYGFKRWPALVFFRDGKYLGAVDGLRLWADLVREADEIMHSEPHYP', -0.166);

---

Quick reference: soluble fraction (log2) of the listed items.
test_details: soluble fraction after stress (log2 fold change); higher = more stays soluble; pooled small domains, quantitative proteomics
applied_conditions: stress: 50 degC
experimental_readout: soluble fraction (log2)

INSERT INTO results (sequence_content, numeric_readout) VALUES
  ('HMGKEDISQINKLYQNQILDYETYIDTLNSFNIDTKSKDFKNLLDLFIKKSISFETFNKGIINIHNKS', 0.11),
  ('HMRPLTPLEKLTPDADGKYYHIVQSGETLSWIAKLYETTAEKLQAWNNLFSSDIFPNQKLLLQVTPP', 0.0722),
  ('HMGDAIPVPDVSGFSEDQAMNNLRKVGLRPKATYVADDNTAKGYVTGTSPAKNIEVAPDSEVIVYVSSGP', 0.238),
  ('HMEISLAETLRSSLHMILGWYQNTGDKKLLELIRLHLQAYVNTGNSLNPEMEEIRAALETLGEGKEAFRP', -0.999),
  ('HMIQLKEHDVVRLRETIVENDEKIPAGTRGVVLSVYDGGRAFAVEVADDRAASAIITAFRDQLEVY', -0.136),
  ('HMSDSGLPLPRFVSLGDDRVNARAGPGFRFPINWVYLRKNFPVEVIDEFGHWRRIKDIDGIEGWIHLSML', -0.775),
  ('HMSEYITEGWLREKFGLGWGTEVHLPLDSRLTPAAHQLLEERKIVIKYIDAEGRVFNPDKSGEEAPVQ', 0.0587),
  ('HMEIYIDGNKYVGELRNGKPNGRGTITYTGDGSKYVGEWKNGKRYGRGKMAYTNGTTKEGVWKDDEFLYAT', 0.0597);

---

Quick reference: soluble fraction (log2) of the listed items.
test_details: soluble fraction after stress (log2 fold change); higher = more stays soluble; pooled small domains, quantitative proteomics
applied_conditions: stress: 50 degC
experimental_readout: soluble fraction (log2)

INSERT INTO measurements (sequence_content, experimental_readout, numeric_readout) VALUES
  ('HMRYNPETTAGRRGLIIKMLDEYGQVNVNELSRYFNVSEVTVRNDLAYLERKNLLIRARGGAIKTE', 'soluble fraction (log2)', -0.941),
  ('HMKLHQDLQIKVIDAANNKVEFIDTATGTSLATRTLDVNGVSKARGFEATLYGVVEDNDVFHIA', 'soluble fraction (log2)', 0.158),
  ('HMKDLTAIKGVGEFFAKKLSQAGYQSITNLTDVNAKRLQADTGIPLPIAARIIKEAQSLIAET', 'soluble fraction (log2)', 0.206),
  ('HMGFSDDEHNALADADLKKALEVTTNKSETQYNIAKLIYSYIISLGDKKPYGDWSYDKALSIIHDA', 'soluble fraction (log2)', 0.0519),
  ('HMGKREKTKVANRQAILVAARAVFAELGYEAATVRDIIRGTDLASGTFYNYFKSKEEVFDALADDGA', 'soluble fraction (log2)', -1.17),
  ('HMSIAKIIGDRIRAYRNQKGWSQEYLAEKADVHHTYIGQLERGEKNATIESISKIAGALGVSLSRLFEN', 'soluble fraction (log2)', -0.0998),
  ('HMPTITIQRGIILSSTTKGFIDELSHSQIKNAIVERLGEHHVMIHESQLDAVIKYAQKKEAVINIYL', 'soluble fraction (log2)', -0.0325),
  ('HMLDPKVFVGKAGINEGIAKLLLQAFDKADLVKVRFTAERDVMETQMQELARLTGSEVIGNVGRTATF', 'soluble fraction (log2)', -0.00291),
  ('HMKDESYALGTRLLSHALGKTKLEDLAQEKIDEVVQQSGNKTLEQLLTNIGLGNALSIGIARQLT', 'soluble fraction (log2)', 0.383),
  ('HMSSRSLSYSDFIERVDAGQVSKVVMDGERLVVVGQDGTSYVTIKPPGDQVTENLSRELISKGVEVEAEPQ', 'soluble fraction (log2)', 0.0107),
  ('HMSAITLDQARAIALDHAGISEGDATFVKEQTGTSSYEIEFYSGSNEYDYEIDKATGAILNVDR', 'soluble fraction (log2)', 0.0269),
  ('HMYNSYALTARELELVNYVLKGNSRREMAEDSGLKENTVASYMKRLYRKIKVHSRKELKELFM', 'soluble fraction (log2)', -0.0805),
  ('HMKQVNVVSVIGQSEANAKTTLTGLGLKVNVAYEEDTSKADGIVLKQSLEGGKTVNEGTTITITVNKIA', 'soluble fraction (log2)', -0.0302),
  ('HMRPPLEWGTHGEITTRTVASGYVRASARVRLWDGELQRMTATASTASDARASLQHRIAERLRFSEL', 'soluble fraction (log2)', -1.46),
  ('HMNGEDVTDAIRLPQISQYASVVSAYPGVRAFLLEMQRDFARKGSVIMDGRDIGTVVLPEAEVKIFLT', 'soluble fraction (log2)', -0.025),
  ('HMNHLLYPNPANNFIWIKNSTSNTAVIYNLQGVMSKVEVSEEGKIDISRFSPGLYMIKQGERIYKFTIA', 'soluble fraction (log2)', -1.34),
  ('HMIDDNTIIQIGDSYSKSIRLLGEPIELKNRSLNQKSYFMAVYDFKGRRYRLFFENDVLFDILRD', 'soluble fraction (log2)', -1.86),
  ('HMSDIDHIAGRRIRQARLNAGMTLETLASQAGISKALLSKIENSKVSSPLATFSKISKVLGVPLSDLLKE', 'soluble fraction (log2)', -0.056),
  ('HMSDPTDRLVLEAALKALGEEERQVVLLHAASGLKHREIARDLGLPLSTVLSRYSRALKKLQRYLTEEGVH', 'soluble fraction (log2)', -0.77),
  ('HMNEKMKEIGLRIKELRELSDISAQGMADHLKIPLETYQEYEDGKKDIPASILFEISQKMEVDMGLLLTGE', 'soluble fraction (log2)', -0.0988),
  ('HMSIYMNIYNEFKKYIIANVYKYDDKLPSVRSIALEYGINPNTVQRAFQLLEDEGYIKTISKKGVYVNYR', 'soluble fraction (log2)', -0.781),
  ('HMTVLPTEQDAKALVGLGEEEAAKIVEGNGWTYRIGSRDGEQFMLTEDFVTSRLTLGIEKAIVMTATI', 'soluble fraction (log2)', -0.915),
  ('HMAKNDSGLNNHTFNTIRDALQKALTDGPQEAKKLTENLPFPADKIITVIRYLADHDEHFSLEDGIISLT', 'soluble fraction (log2)', 0.24),
  ('HMDEKVTIPSVSGLLLSEAKTKLVDAGLTVETVYDDESKEAKDTVLSQSPLQYGKVDKGTVVTLTVSSGKG', 'soluble fraction (log2)', -0.043),
  ('HMGQKNEDESLAKFYVHKKGNQYGPYSLIQIREYLKNNSFSLDDLASWDGQSWKKISQIPNLN', 'soluble fraction (log2)', -0.075),
  ('HMHPDALTEREREVLSLLADGLSNREIAARLVLALGTVKWYISVIYSKLGVTRRTQAIARARELHLV', 'soluble fraction (log2)', -0.0971),
  ('HMPKLVGEVMQTLDALRREKGLSLLLVEQNARAALGVVDRVYVLERGRVVFEGSAKEAMEDQDVMEFYLG', 'soluble fraction (log2)', 0.0385),
  ('HMSQLSQIVDAFGGLRPFARALNKPPSTVQYWIEKGGIPASVVSPIMKLSEEKGLGLSRDQVSAAVS', 'soluble fraction (log2)', 0.157),
  ('HMAVDPSVLTRRERQALAWIARGLSNKEVARGLNLAESTVKVHVQSILRKLNLTSRVQAAVYAIEHGIDK', 'soluble fraction (log2)', -2.79),
  ('HMKFSVEEQFKKSFPKNTYETFSETSLKGVYEVYNGKQVYYYLPVNDVLLLGSIVTKDGKNLTQESNSKK', 'soluble fraction (log2)', -0.0811),
  ('HMDSTTHALALVRTLPRDQAEAVLLRVVADLDYADVAEIMGRSPGAVRVLVHRGLRRLEQELATRRT', 'soluble fraction (log2)', -0.465),
  ('HMDPKISWESDEKLSANIGHYENSIKPLMGNKYLIELSQLKDKIESHPWVARATIKRIFWNKIHIQLESHD', 'soluble fraction (log2)', 0.00717),
  ('HMRLTTTPKTARGLTTMNRIIRAAEVEFGRKGYHYTGITDIAQRAKVASGTIYLYFTDKYSLYVHLLT', 'soluble fraction (log2)', 0.246);
